Molecular target: T1, Rae1(31-368)-Nup98(157-213) heterodimer (human, UniProt P78406 31-368; P52948 157-213)
T1 construct: also called Rae1-Nup98; Rae1-Nup98 complex
T1 sequence (P78406 31-368, chain 1 of 2): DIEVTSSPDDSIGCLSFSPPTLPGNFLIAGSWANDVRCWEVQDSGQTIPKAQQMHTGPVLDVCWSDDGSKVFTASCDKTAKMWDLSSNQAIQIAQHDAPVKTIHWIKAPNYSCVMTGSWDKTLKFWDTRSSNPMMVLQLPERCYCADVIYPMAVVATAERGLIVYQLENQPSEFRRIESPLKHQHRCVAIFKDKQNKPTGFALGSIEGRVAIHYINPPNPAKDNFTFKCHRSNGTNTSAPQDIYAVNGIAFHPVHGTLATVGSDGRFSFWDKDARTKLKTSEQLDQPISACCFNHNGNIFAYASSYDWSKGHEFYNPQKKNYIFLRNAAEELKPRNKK
T1 sequence (P52948 157-213, chain 2 of 2): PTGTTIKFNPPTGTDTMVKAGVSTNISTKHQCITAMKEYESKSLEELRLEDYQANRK
Test: ITC
Conditions: both partners purified
pKd: −log10 of the molar value.
Measured pKd accompanies every entry in the list below.

>  <Binder>
SLTENKYSQLDEEQPMEID (source: synthetic peptide) [SARS-CoV-2 ORF6 C1]

>  <pKd>
6.42

$$$$
>  <Binder>
DEEQPMEID (source: synthetic peptide) [SARS-CoV-2 ORF6 C4]

>  <pKd>
6.36

$$$$
>  <Binder>
ENKYSQLDEEQPMEID (source: synthetic peptide) [SARS-CoV-2 ORF6 C2]

>  <pKd>
6.57

$$$$
